B1: Arginine-glutamic acid dipeptide repeats protein, residues 502 to 543; numbered along this chain, Q9P2R6 (parent)
chain: LKGYACRHCFTTTSKDWHHGGRENILLCTDCRIHFKKYGELP

variants of: B1; test: abundance fitness (aPCA) (normalised: wild type 0, dead -1); higher = more abundant; growth selection in yeast, the domain comes from the species named; conditions: Homo sapiens
Short version: abundance fitness at least -0.4 is true (1), less is false (0).

Recorded results for 4 variants are shown here.
{"columns": ["variantSpec", "groupLabel"],
 "data": [
  ["R32S", "true (1)"],
  ["G39V", "false (0)"],
  ["S14E", "true (1)"],
  ["G21P", "true (1)"]
]}

Entry `G21K` : is its abundance fitness no less than -0.4?
true (1)

Dear colleague, could you confirm whether `S14M` has abundance fitness at or above -0.4?
false (0)

Given `R7A` , state whether its abundance fitness is at least -0.4.
true (1)
